B1: CPEB3 Ribozyme (parent)
chain: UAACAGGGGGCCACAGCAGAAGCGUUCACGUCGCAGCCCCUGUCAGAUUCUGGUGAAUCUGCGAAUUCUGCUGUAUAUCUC

variants of: B1; test: self-cleavage, relative activity (ratio to wild type); higher = more cleavage; in vitro, sequencing
Is self-cleavage at least 0.9? Then Satisfied. If not, Not satisfied.

Field: example entries. Status: answers known.
| macromolecule.sequence | group |
| --- | --- |
| UAACAGGGGGCCACAGCAGAGGCGUUCACGUCGCAGCCCCUGUCAGAUUCUGGUGAAUCCGCGAAUUCUGCUGUAUAUCUC [A21G U60C] | Not satisfied |
| UAACAGGGGGCCACAGCAGAAGCGUUCACGUCGCAGCCCCGGUCAGAUUCUGGUGAAUCUGCGUAUUCUGCUGUAUAUCUC [U41G A64U] | Not satisfied |
| UAACAGGGGGCCACUGCAGAAGCGUGCACGUCGCAGCCCCUGUCAGAUUCUGGUGAAUCUGCGAAUUCUGCUGUAUAUCUC [A15U U26G] | Not satisfied |

[Q] Exam item: decide whether the reported self-cleavage for UAACAGGGGGCCACAGCAGAAGCGUUGACGUCGCAGCCCCUGUCAGAUUCUGGCGAAUCUGCGAAUUCUGCUGUAUAUCUC [C27G U54C] is at least 0.9.
[A] Not satisfied

[Q] Has UAACAGGGGGCCACAGCAGAAGCGUUCACGUCGCAGCCCCUGUCAGAUUCUGGUGAAUCUGCGAAUUCUGCUGCAUAUAUC [U74C C79A] a recorded self-cleavage greater than or equal to 0.9?
[A] Satisfied

[Q] Is reported self-cleavage greater than or equal to 0.9 here: UAACAGGGGGCCACAGCAGAAGCGUUCACGUCGCAGCCCCUGUCAGAUUCUGGUGAGUCUGCGAAUUCUGCUAUAUAUCUC [A57G G73A]
[A] Satisfied
